Target: T1, TIGIT (UniProt Q495A1 22-141, limits assumed)
T1 construct: also called T cell immunoreceptor with Ig and ITIM domains; hTIGIT
T1 sequence (looked up): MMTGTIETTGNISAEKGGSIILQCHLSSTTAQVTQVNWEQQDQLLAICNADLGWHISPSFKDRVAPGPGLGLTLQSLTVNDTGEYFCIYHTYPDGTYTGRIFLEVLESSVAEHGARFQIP
Test: SPR (Carterra)
Property Label: RU

[[record]]
binder = "TIGIT-471-019 (antibody, V domains shown, Variable domains only) VH: EVQLLESGGGLVQPGGSLRLSCAASGFTFSNYGVSWVRQAHGKGLEWVVYINPSRGYTYYADSVKGRFSISRDNSKNTLYLQMNSLRAEDTAVYYCARSYGGGFDYWGQGTLVTVSS VL: DIQMTQSPSSLSASVGDRVTITCRASQTIERRLNWYQQKPGKAPKLLIYDASSLHTGVPSRFSGSGSGTDFTLTISSLQPEDFATYYCQQSYIIPPTFGQGTKVEIK"
measured_result = "156 RU"

[[record]]
binder = "TIGIT-471-001 (antibody, V domains shown, Variable domains only) VH: EVQLLESGGGLVQPGGSLRLSCAASGFTFSNYGVSWVRQAPGKGLEWVGYINPSRGYTYYADSVKGRFTISRDNSKNTLYLQMNSLRAEDTAVYYCARSYGGGFDYWGQGTLVTVSS VL: DIQMTQSPSSLSASVGDRVTITCRASQTIERRLNWYQQKPGKAPKLLIYDASSLHTGVPSRFSGSGSGTDFTLTISSLQPEDFATYYCQQSYIIPPTFGQGTKVEIK"
measured_result = "175 RU"

[[record]]
binder = "TIGIT-471-038 (antibody, V domains shown, Variable domains only) VH: EVQLLESGGGLVQPGGSLRLSCAASGFTFSNYGVSWVRQAPGKGLEWVGYINPSRGYTYYADSVKGRFTISRDNSKNTLYLQMNSLRAEDTAVYYCARSYGGGFDYWGQGTLVTVSS VL: DIQMTQSPSSLSASVGDRVTITCRASQTIERRLNWYQQKPGKAPKLLIYDASSLHTGVSSRFSGSGSGTYFTLTISSLQAEDFATYYCQQSYIIPPTFGQGTKVEIK"
measured_result = "78 RU"

[[record]]
binder = "TIGIT-471-011 (antibody, V domains shown, Variable domains only) VH: EVQLLESGGGLVQPGGSLRLSCAASGFTFSNYGVSWVRQAPGKGLEWVSSIDWHGWVTYYADSVKGRFTISRDNSKNTLYLQMNSLRAEDTAVYYCVKNALRFDYWGQGTLVTVSS VL: DIQMTQSPSSLSASVGDRVTITCSASQDINKYLNWYQQKPGKAPKLLIYHTSRLQSGVPSRFSGSGSGTDFTLTISSLQPEDFATYYCQQVVWRPFTFGQGTKVEIK"
measured_result = "1080 RU"

[[record]]
binder = "TIGIT-471-027 (antibody, V domains shown, Variable domains only) VH: EVQLLESGGGLVQPGGSLRLSCAASGFTFSNYGVSWVRQAPGKGLEWVSWISPHGALTYYADSVKGRFTISRDNSKNTLYLQMNSLKAEDTAVYYCAKGRRRFDYWGQGTLVTVSS VL: DIQMTQSPSSLSASVGDRVTITCRASQTISSYLNWYQQKPGKAPKLLIYENNNRPSGVPSRFSGSGSGTDFTLTISSLQPEDFATYYCQQSYIIPPTFGQGTNVEIK"
measured_result = "57.5 RU"

[[record]]
binder = "TIGIT-471-048 (antibody, V domains shown, Variable domains only) VH: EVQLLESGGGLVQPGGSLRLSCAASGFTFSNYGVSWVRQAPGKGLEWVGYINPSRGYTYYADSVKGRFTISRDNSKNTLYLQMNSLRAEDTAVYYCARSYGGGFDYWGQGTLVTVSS VL: DIQMTQSPSSLSASVGDRVTITCGASQTIERRLNWYQQKPGKAPKLLIYDASSLHTGVPSRISGSGSGTDFTLTISSLQPEHFATYYCQQSYIIPPTFGQGTKVEIK"
measured_result = "122 RU"

[[record]]
binder = "TIGIT-471-035 (antibody, V domains shown, Variable domains only) VH: EVQLLESGGGLVQPGGSLRLSCAASGFTFNAYPMTWVRQAPGKGLEWVSAITGSGGSTYYADSVKGRFTISRDNSKNTLYLQMNSLRAEDTAVYYCARVWRNHLDYWGQGTLVTVSS VL: DIQMTQSPSSLSASVGDRVTITCSGDKLGHTYTSWYQQKPGKAPKLLIYRASTLASGVPSRFSGSGSGTDFTLTISSLQPEDFATYYCQQGYTLPWTFGQGTKVEIK"
measured_result = "93.7 RU"

